Target: F508del-CFTR (Homo sapiens, UniProt P13569, DEL508-508)
Sequence (P13569 with tags, fused parts or gaps DEL508-508): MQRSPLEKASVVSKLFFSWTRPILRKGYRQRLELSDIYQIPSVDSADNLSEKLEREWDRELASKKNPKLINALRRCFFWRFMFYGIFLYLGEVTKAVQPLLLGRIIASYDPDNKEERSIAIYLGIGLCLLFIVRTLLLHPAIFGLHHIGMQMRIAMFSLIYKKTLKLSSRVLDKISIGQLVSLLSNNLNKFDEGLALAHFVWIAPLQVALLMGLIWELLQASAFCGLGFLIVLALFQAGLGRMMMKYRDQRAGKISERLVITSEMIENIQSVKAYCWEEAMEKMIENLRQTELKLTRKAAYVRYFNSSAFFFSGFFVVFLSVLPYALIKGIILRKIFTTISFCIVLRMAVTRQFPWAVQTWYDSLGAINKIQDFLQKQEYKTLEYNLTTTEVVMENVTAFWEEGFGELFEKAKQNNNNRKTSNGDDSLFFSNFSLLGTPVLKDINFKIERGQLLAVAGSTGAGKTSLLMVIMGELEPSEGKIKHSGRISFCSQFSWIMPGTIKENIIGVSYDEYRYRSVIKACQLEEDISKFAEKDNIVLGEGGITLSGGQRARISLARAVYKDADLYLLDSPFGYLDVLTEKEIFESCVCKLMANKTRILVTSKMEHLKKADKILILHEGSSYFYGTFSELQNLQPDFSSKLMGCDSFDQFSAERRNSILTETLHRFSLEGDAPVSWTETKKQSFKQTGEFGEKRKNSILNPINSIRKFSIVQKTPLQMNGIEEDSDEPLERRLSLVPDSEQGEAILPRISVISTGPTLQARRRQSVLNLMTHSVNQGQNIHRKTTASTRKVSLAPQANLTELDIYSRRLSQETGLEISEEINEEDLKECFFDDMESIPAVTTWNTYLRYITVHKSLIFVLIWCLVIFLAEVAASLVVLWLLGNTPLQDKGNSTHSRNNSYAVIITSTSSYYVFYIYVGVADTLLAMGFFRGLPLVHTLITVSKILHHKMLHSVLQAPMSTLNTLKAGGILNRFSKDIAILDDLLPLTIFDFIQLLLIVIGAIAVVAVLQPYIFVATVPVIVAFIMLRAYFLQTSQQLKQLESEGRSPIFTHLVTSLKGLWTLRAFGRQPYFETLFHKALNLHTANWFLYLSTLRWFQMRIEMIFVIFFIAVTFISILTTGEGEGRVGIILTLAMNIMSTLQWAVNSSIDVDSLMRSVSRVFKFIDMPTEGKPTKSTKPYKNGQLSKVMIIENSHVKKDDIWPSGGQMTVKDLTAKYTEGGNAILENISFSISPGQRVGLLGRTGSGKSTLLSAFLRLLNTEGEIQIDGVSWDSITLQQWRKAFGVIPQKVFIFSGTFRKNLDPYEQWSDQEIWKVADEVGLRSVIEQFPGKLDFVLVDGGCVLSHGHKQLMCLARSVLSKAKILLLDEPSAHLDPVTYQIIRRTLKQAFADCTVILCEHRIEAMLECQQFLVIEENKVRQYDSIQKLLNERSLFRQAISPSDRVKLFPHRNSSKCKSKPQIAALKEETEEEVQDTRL
Test: HS-YFP-based assay for CFTR activity on F508del-CFTR FRT cells rescued at 32 °C for 24 h
Format: cell-based
Parameters: expressed in transfected cells; key: fold increase in F508del-CFTR rescue relative to hit 3 (normalized)
Settings: supplementary csv; same data as Tables 1–3
Kindly return rule met if reported Emax is no lower than 0.8; return rule not met if it is lower.

Use the examples below as a reference point.
Compound	Discrete label
Cc1cc(F)c2[nH]c3c(c2c1)CN(C(=O)c1cc(C(F)(F)F)[nH]n1)CC3	rule not met
Cc1cccc2[nH]c3c(c12)CN(C(=O)c1cc(C(F)(F)F)[nH]n1)CC3	rule met

Read the next record carefully.
Q: Is it the case that Cc1ccc(F)c2c3c([nH]c12)CCN(C(=O)c1cc(C(F)(F)F)[nH]n1)C3 has Emax reaching or exceeding 0.8?
Result: rule not met

* * *

Biological target: F508del-CFTR (Homo sapiens, UniProt P13569, DEL508-508)
Assay: HS-YFP-based assay for CFTR activity on F508del-CFTR FRT cells rescued at 32 °C for 24 h
Assay type: cell-based
Parameters: expressed in transfected cells
Conditions: F508del-CFTR FRT cells rescued at 32 °C for 24 h, plus forskolin; mean ± SD (n = 3–6); n.a.: not active (up to 20 μM)
Quantity measured: log10 of EC50 (log10 of the value in µM)
Heads up: the numbers are on a log10 scale; they represent EC50 in µM.

A selection of reference data follows.
Molecule	Quantity measured	Numeric value
COc1ccc2[nH]c3c(c2c1)CN(C(=O)c1cc2ccc(N(C)C)cc2[nH]1)CC3	log10 of EC50	-0.82
COc1ccc2[nH]c3c(c2c1)CN(C(=O)c1cc(C(C)C)[nH]n1)CC3	log10 of EC50	0.76
Cc1ccc(F)c2c3c([nH]c12)CCN(C(=O)c1cc(C(F)(F)F)[nH]n1)C3	log10 of EC50	-0.03
CS(=O)(=O)c1ccc2[nH]c3c(c2c1)CN(C(=O)c1cc(C(F)(F)F)[nH]n1)CC3	log10 of EC50	1.02
O=C(c1cc(C(F)(F)F)[nH]n1)N1CCc2[nH]c3ccc(F)cc3c2C1	log10 of EC50	-0.32

Q: Entry O=C(c1cc(C(F)(F)F)[nH]n1)N1CCc2[nH]c3c(F)cccc3c2C1 : reported log10 of EC50 = ?
Result: -1.02

Q: What does the data say about its log10 of EC50? Entry: Cc1ccc(F)c2[nH]c3c(c12)CN(C(=O)c1cc(C(F)(F)F)[nH]n1)CC3
Result: -1.22

Q: Entry under review: Cc1ccc(F)c2[nH]c3c(c12)CCN(C(=O)c1cc(C(F)(F)F)[nH]n1)CC3 . Reported log10 of EC50?
Result: 0.36

Q: What log10 of EC50 value was documented for this molecule, Cc1ccc(F)c2[nH]c3c(c12)CN(C(=O)c1cc(C(F)(F)F)[nH]n1)[C@H](C)C3 ?
Result: -1.77

Q: Given the molecule Cc1cccc2c3c([nH]c12)CCN(C(=O)c1cc(C(F)(F)F)[nH]n1)C3 , what is its reported log10 of EC50?
Result: 0.06

Q: Tell me the measured log10 of EC50 of COc1ccc2[nH]c3c(c2c1)CN(C(=O)c1cc(C)[nH]n1)CC3 , please.
Result: 1.78

Q: Look up log10 of EC50: O=C(c1cc(C(F)(F)F)[nH]n1)N1CCc2[nH]c3c(F)cc(F)cc3c2C1
Result: -0.82

Q: # get_value(readout='log10 of EC50', item= Cc1ccc2[nH]c3c(c2c1)CN(C(=O)c1cc(C(F)(F)F)[nH]n1)CC3 )
Result: -0.57

Q: Quick one: log10 of EC50 for Cc1ccc2c3c([nH]c2c1)CCN(C(=O)c1cc(C(F)(F)F)[nH]n1)C3 ?
Result: -0.70

Q: Which log10 of EC50 value is on record for Cc1ccc(F)c2[nH]c3c(c12)C(C)N(C(=O)c1cc(C(F)(F)F)[nH]n1)CC3 (single isomer, unassigned) [Compound 42] ?
Result: -1.30

Q: Value lookup for log10 of EC50; key = COc1ccc2[nH]c3c(c2c1)CN(C(=O)c1cc[nH]n1)CC3
Result: 1.03

Q: Endpoint output: log10 of EC50 of Cc1ccc(F)c2[nH]c3c(c12)CN(C(=O)c1cc(C(F)(F)F)[nH]n1)C(C)(C)C3 . Value?
Result: 0.28

Q: Item O=C(c1cc(C(F)(F)F)[nH]n1)N1CCc2[nH]c3c(F)ccc(F)c3c2C1 has what recorded log10 of EC50?
Result: -0.82

* * *

Assay: Liver microsomal stability, phase I (NADPH), human
Assay type: in vitro ADME
Details: human, liver microsomes, pH 7.5, 0.1% DMSO, n ≥ 3, read-out: human LM_NADPH t1/2
Quantity measured: half-life at 4.6 μM

These solved cases illustrate the format of a correct answer.
Molecule	half-life at 4.6 μM
Cc1ccc(F)c2[nH]c3c(c12)CN(C(=O)c1cc(C(F)(F)F)[nH]n1)[C@H](C)C3 [Compound 39]	> 1 h
O=C(c1cc(C(F)(F)F)[nH]n1)N1CCc2[nH]c3c(F)cccc3c2C1 [Compound 20]	> 1 h

Q: Look up half-life at 4.6 μM for this molecule: O=C(c1cc(C(F)(F)F)[nH]n1)N1CCc2[nH]c3c(F)ccc(F)c3c2C1 [Compound 29]
Result: > 1 h

* * *

Assay: Liver microsomal stability, phase I (NADPH), human
Assay type: in vitro ADME
Settings: human, liver microsomes, pH 7.5, 0.1% DMSO, n ≥ 3, read-out: human LM_NADPH t1/2
Below, each of the compounds is paired with its reported half-life at 1 h, 4.6 µM value.

Q: Which value of half-life at 1 h, 4.6 µM has been reported for Cc1ccc(F)c2[nH]c3c(c12)CN(C(=O)c1cc(C(F)(F)F)[nH]n1)CC3 [Compound 30] in the records?
Result: 53 min

Q: # input compound: COc1cc(F)c2[nH]c3c(c2c1)CN(C(=O)c1cc(C(F)(F)F)[nH]n1)CC3 [Compound 25] ; wanted: its half-life at 1 h, 4.6 µM
Result: 33 min

Q: Param item = COc1ccc2[nH]c3c(c2c1)CN(C(=O)c1cc(C(F)(F)F)[nH]n1)CC3 [Compound 3] ; retrieve measured half-life at 1 h, 4.6 µM.
Result: 42 min

* * *

Assay: Pharmacokinetics after i.v. and p.o. administration to rats
Format: in vivo, Sprague–Dawley rats
Conditions: male, Sprague-Dawley, rat, plasma, po; p.o. 10 mg/kg versus i.v. 3 mg/kg; time interval 0–4 h
Quantity measured: bioavailability at 4 h (%)
Response body: numeric value in %, unit text excluded.

Q: # lookup: bioavailability at 4 h of Cc1ccc(F)c2[nH]c3c(c12)CN(C(=O)c1cc(C(F)(F)F)[nH]n1)[C@H](C)C3 [Compound 39]
Result: 30

* * *

Assay: Pharmacokinetics after i.v. and p.o. administration to rats
Format: in vivo, Sprague–Dawley rats
Conditions: male, Sprague-Dawley, rat, iv, 3 mg/kg, plasma
Quantity measured: Cmax at 4 h (µM)
Entry rule: numbers only, all in µM.

Q: Which Cmax at 4 h value belongs to Cc1ccc(F)c2[nH]c3c(c12)CN(C(=O)c1cc(C(F)(F)F)[nH]n1)[C@H](C)C3 [Compound 39] ?
Result: 7.3

* * *

Target: F508del-CFTR (Homo sapiens, UniProt P13569, DEL508-508)
Test: HS-YFP-based assay for CFTR activity on F508del-CFTR FRT cells rescued at 32 °C for 24 h
Assay type: cell-based
Set-up: expressed in transfected cells
Settings: F508del-CFTR FRT cells rescued at 32 °C for 24 h, plus forskolin; mean ± SD (n = 3–6); n.a.: not active (up to 20 μM)
Recorded EC50, one value per entry.
The answer is to be given in µM; state only the numeric part.

Compound	EC50 [µM]
O=C(c1cc(C(F)(F)F)[nH]n1)N1CCc2[nH]c3ccccc3c2C1 [Compound 13]	0.23
O=C(c1cc(C(F)(F)F)[nH]n1)N1CCc2[nH]c3ccc(C(F)(F)F)cc3c2C1 [Compound 21]	0.44

Q: Give EC50 (F508del-CFTR (Homo sapiens, UniProt P13569, DEL508-508)) of the following compound: COc1ccc2c(c1)c1c(n2C)CCN(C(=O)c2cc(C(F)(F)F)[nH]n2)C1 [Compound 12]
Result: 2.1

Q: Missing value: EC50, F508del-CFTR (Homo sapiens, UniProt P13569, DEL508-508), entry COc1ccc2[nH]c3c(c2c1)CN(C(=O)c1ccc(Br)o1)CC3 [Compound 9] . Fill in?
Result: 3.7

* * *

Assay: Liver microsomal stability, phase I (NADPH), dog
Assay type: in vitro ADME
Conditions: 4.6 μM, 60 min
Experimental: […] The final concentration was 4.6 μM. After preincubation, the cofactors (NADPH, G6P, G6PDH, and MgCl2 predissolved in 0.1 M Tris–HCl) were added to the incubation mixture and the incubation was continued at 37 °C for 1 h. For both phase I and II studies: At each time point (0, 5, 15, 30, and 60 min), 30 μL of the incubation mixture was diluted with 200 μL of cold CH3CN spiked with 200 nM of an appropriate internal standard, followed by centrifugation at 3270g for 15 min. […]
Assign labels as follows, please: rule met for dog LM_NADPH parent compound remaining at the last time point (in parentheses) below 90%; rule not met for dog LM_NADPH parent compound remaining at the last time point (in parentheses) equal to or exceeding 90%.

Molecule	Discrete label
O=C(c1cc(C(F)(F)F)[nH]n1)N1CCc2[nH]c3c(F)ccc(F)c3c2C1 [Compound 29]	rule not met

Q: Does the reported dog LM_NADPH parent compound remaining at the last time point (in parentheses) of the following molecule sit strictly below 90%? O=C(c1cc(C(F)(F)F)[nH]n1)N1CCc2[nH]c3c(F)cccc3c2C1 [Compound 20]
Result: rule met

Q: Answer whether the molecule COc1ccc2[nH]c3c(c2c1)CN(C(=O)c1cc(C(F)(F)F)[nH]n1)CC3 [Compound 3] has dog LM_NADPH parent compound remaining at the last time point (in parentheses) strictly less than 90%
Result: rule met
